Molecular target: SULT1E1 (Homo sapiens, UniProt P49888)
Construct: recombinant, purchased from BD Gentest
Assay: inhibition of 4-nitrophenol sulfation, UPLC-UV, Lineweaver-Burk slope replot
Metric: Ki
Give the figure together with its unit, number first.

**Query** Let me know recorded Ki for CCCCCCCCOC(=O)c1ccccc1C(=O)O [MOP] , thanks.
**Result** 5.54 µM

====

Target: SULT1E1 (Homo sapiens, UniProt P49888)
Construct: recombinant, purchased from BD Gentest
Sequence (P49888 1-294): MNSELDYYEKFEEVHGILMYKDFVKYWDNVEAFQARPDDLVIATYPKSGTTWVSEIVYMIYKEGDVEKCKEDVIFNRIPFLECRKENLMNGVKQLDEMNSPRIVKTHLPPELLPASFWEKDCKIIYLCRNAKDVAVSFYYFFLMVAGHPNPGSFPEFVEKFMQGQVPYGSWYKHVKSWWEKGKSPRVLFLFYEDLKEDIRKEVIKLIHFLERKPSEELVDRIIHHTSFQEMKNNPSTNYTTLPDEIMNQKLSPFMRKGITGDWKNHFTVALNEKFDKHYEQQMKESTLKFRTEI
Assay: inhibition of 4-nitrophenol sulfation, UPLC-UV
Metric: IC50 (µM)
Give the value in µM but do not write µM after it.

Record excerpt, results attached:
CCCCC(CC)COC(=O)c1ccccc1C(=O)O (stereo not drawn) = 1.73
CCCCCCOC(=O)c1ccccc1C(=O)O = 4.54

Query compound follows.
**Query** In one line, give reported IC50 of the entry CCCCCCCCOC(=O)c1ccccc1C(=O)O .
**Result** 1.77
